Ref: ChEMBL document CHEMBL5365431

- System: U-251
- Measurement Protocol: Antiproliferative activity against human Talazoparib-resistant U-251 cells assessed as cell proliferation inhibition incubated for 7 days by SRB assay
- Assay type: functional, cell-based
pIC50: −log10 of the molar value.

Smiles Str | pIC50
O=C(c1cc(Cc2n[nH]c(=O)c3ccccc23)ccc1F)N1CCn2c(nnc2-c2ccc(Br)o2)C1 | 8.71

----------
- System: CAPAN-1
- Measurement Protocol: Antiproliferative activity against human Talazoparib-resistant CAPAN-1 cells assessed as cell proliferation inhibition incubated for 7 days by SRB assay
- Type: functional, cell-based
Some molecules, each annotated with its measured IC50.

Molecule | System Name | Qualifying Sign | IC50 [nM]
O=C(c1cc(Cc2n[nH]c(=O)c3ccccc23)ccc1F)N1CCn2c(nnc2-c2ccno2)C1 | CAPAN-1 | = | 249
Cn1ncnc1[C@H]1c2n[nH]c(=O)c3cc(F)cc(c23)N[C@@H]1c1ccc(F)cc1 | CAPAN-1 | = | 906
O=C(c1cc(Cc2n[nH]c(=O)c3ccccc23)ccc1F)N1CCn2c(nnc2C2CCOC2)C1 (centres undefined) | CAPAN-1 | = | 517
CP(C)(=O)c1ccc(-c2nnc3n2CCN(C(=O)c2cc(Cc4n[nH]c(=O)c5ccccc45)ccc2F)C3)o1 | CAPAN-1 | > | 10000

----------
- Measurement Protocol: Antiproliferative activity against human Olaparib-resistant CAPAN-1 cells assessed as cell proliferation inhibition incubated for 7 days by SRB assay
- Assay type: functional, cell-based
pIC50: −log10 of the molar value.

Smiles Str | Qualifying Sign | pIC50
Cn1ccc(-c2nnc3n2CCN(C(=O)c2cc(Cc4n[nH]c(=O)c5ccccc45)ccc2F)C3)n1 | = | 6.87
Cn1ncnc1[C@H]1c2n[nH]c(=O)c3cc(F)cc(c23)N[C@@H]1c1ccc(F)cc1 | = | 6.16
O=C(c1cc(Cc2n[nH]c(=O)c3ccccc23)ccc1F)N1CCn2c(nnc2-c2ccc(CN3CCC3)o2)C1 | = | 5.19
O=C(c1cc(Cc2n[nH]c(=O)c3ccccc23)ccc1F)N1CCn2c(nnc2-c2ccc(C3COC3)o2)C1 | = | 6.44
O=C(c1cc(Cc2n[nH]c(=O)c3ccccc23)ccc1F)N1CCn2c(nnc2-c2ccc(C3CCOCC3)o2)C1 | = | 7.11
O=C(c1cc(Cc2n[nH]c(=O)c3ccccc23)ccc1F)N1CCn2c(nnc2-c2ccno2)C1 | = | 6.46
O=C(c1cc(Cc2n[nH]c(=O)c3ccccc23)ccc1F)N1CCn2c(nnc2-c2ccc(CN3CCCC3)o2)C1 | = | 5.84
CP(C)(=O)c1ccc(-c2nnc3n2CCN(C(=O)c2cc(Cc4n[nH]c(=O)c5ccccc45)ccc2F)C3)o1 | < | 5.00

----------
List of pIC50 tested on UniProt P09874.
Sequence (P09874 whole entry): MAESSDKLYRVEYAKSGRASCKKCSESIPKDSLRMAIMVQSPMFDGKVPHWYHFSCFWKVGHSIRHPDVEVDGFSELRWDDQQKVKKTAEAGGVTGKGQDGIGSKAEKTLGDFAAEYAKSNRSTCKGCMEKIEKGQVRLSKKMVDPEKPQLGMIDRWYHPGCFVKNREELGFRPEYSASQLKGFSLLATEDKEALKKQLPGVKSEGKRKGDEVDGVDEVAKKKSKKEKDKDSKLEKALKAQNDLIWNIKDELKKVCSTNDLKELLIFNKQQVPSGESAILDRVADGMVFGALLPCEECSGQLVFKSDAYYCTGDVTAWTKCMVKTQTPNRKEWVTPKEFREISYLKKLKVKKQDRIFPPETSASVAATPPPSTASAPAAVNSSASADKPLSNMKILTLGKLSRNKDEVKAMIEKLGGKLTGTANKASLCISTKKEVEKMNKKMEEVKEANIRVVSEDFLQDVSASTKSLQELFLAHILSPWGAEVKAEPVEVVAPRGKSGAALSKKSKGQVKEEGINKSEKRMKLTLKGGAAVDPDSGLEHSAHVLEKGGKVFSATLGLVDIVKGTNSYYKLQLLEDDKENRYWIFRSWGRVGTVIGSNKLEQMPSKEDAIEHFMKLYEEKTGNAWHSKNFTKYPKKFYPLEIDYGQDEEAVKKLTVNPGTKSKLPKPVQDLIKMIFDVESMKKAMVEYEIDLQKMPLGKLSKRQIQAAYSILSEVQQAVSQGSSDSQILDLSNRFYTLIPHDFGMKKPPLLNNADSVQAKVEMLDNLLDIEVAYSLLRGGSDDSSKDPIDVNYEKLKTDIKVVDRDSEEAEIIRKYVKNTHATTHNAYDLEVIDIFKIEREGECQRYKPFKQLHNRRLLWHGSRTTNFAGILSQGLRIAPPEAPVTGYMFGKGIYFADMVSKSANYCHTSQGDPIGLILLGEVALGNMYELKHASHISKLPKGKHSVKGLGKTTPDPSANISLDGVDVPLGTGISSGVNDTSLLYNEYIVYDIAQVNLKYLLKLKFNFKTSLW
pIC50: −log10 of the molar value.
Experimental Readout: pIC50

Smiles Str | Measured Result
O=C(c1cc(Cc2n[nH]c(=O)c3ccccc23)ccc1F)N1CCn2c(nnc2-c2ccc(C3COC3)o2)C1 | 8.21
CP(C)(=O)c1ccc(-c2nnc3n2CCN(C(=O)c2cc(Cc4n[nH]c(=O)c5ccccc45)ccc2F)C3)o1 | 7.89
Cn1cc(-c2nnc3n2CCN(C(=O)c2cc(Cc4n[nH]c(=O)c5ccccc45)ccc2F)C3)cn1 | 8.14
O=C(c1cc(Cc2n[nH]c(=O)c3ccccc23)ccc1F)N1CCn2c(nnc2-c2ccc(C(F)(F)F)o2)C1 | 7.21
